test system: OVCAR-8; assay: NCI tumour cell line growth inhibition, 48 h
Active and inactive are the calls of the source. No stated cut-off is given here; in the data, active = GI50 up to about 1.1 µM and inactive = higher. Non-standard residues stand in square brackets, D forms with d. Residues, ends and D or L forms follow the SMILES beside them. ξ: configuration not given here. *: point of attachment. NMeF = CN[C@@H](Cc1ccccc1)C(=O)O; NMeN = CN[C@@H](CC(N)=O)C(=O)O; NMeV = CN[C@H](C(=O)O)C(C)C; ξNMeV = CNC(C(=O)O)C(C)C; Boc = CC(C)(C)OC(=O)*; ξNMeA = CNC(C)C(=O)O; ξV = CC(C)C(N)C(=O)O
Can you answer with just one of these options? active, inactive

Per the assay record, what outcome was assigned to CC(=O)c1c(C(F)(F)F)[n+]([O-])c2cc(Cl)c(Cl)cc2[n+]1[O-] ?
active

Per the assay record, what outcome was assigned to COc1ccc(/C=C\c2cc(OC)c(OC)c(OC)c2)cc1OC(=O)CC(N)C(=O)O (stereo not drawn) ?
active

Per the assay record, what outcome was assigned to N=C(N)SC(c1ccccc1)c1ccccc1 ?
inactive

Per the assay record, what outcome was assigned to c1ccc2c(c1)CC1COc3ccccc3C1O2 (stereo not drawn) ?
inactive

Per the assay record, what outcome was assigned to COc1ccc(C2C3=C(COC3=O)Oc3cc4c(cc32)OCO4)c(OC)c1 (stereo not drawn) ?
inactive

Per the assay record, what outcome was assigned to CCC(=O)NC(NNS(=O)(=O)c1ccc(C)cc1)(C(F)(F)F)C(F)(F)F ?
inactive

Per the assay record, what outcome was assigned to O=C(Nc1ccccc1F)c1cc2ccc(O)cc2o/c1=N\c1ccccc1F ?
inactive

Per the assay record, what outcome was assigned to O=C(O/N=C1/CCC/C1=C\c1ccccc1)c1ccc([N+](=O)[O-])cc1 ?
inactive

Per the assay record, what outcome was assigned to COC(=O)C(C)N(C)C(=O)[C@H](CC(N)=O)N(C)C(=O)[C@@H]1CCCN1C(=O)[C@H](C(C)C)N(C)C(=O)C(C(C)C)N(C)C(=O)[C@H](Cc1ccccc1)N(C)C(=O)C(NC(=O)OC(C)(C)C)C(C)C (stereo partly drawn) (Boc-[ξV][NMeF][ξNMeV][NMeV]P[NMeN][ξNMeA]-OMe) ?
inactive

Per the assay record, what outcome was assigned to CSc1ncnc2c1ncn2CCC#N ?
inactive

Per the assay record, what outcome was assigned to COc1cc2c(=O)cnoc2cc1O ?
inactive

Per the assay record, what outcome was assigned to O=C(c1nsc(Cl)c1Cl)N1CCCCC1 ?
inactive

Per the assay record, what outcome was assigned to C[N+](C)(C)CC(=O)N/N=C/c1oc(-c2c(O)ccc3ccccc23)c(-c2c(O)ccc3ccccc23)c1[N+](=O)[O-] ?
inactive

Per the assay record, what outcome was assigned to NC(=O)/C=C/C(=O)O ?
inactive

Per the assay record, what outcome was assigned to Cn1nc(-c2ccccc2NC(=O)C(F)(F)F)c(=O)n(C)c1=S ?
inactive

###

system: DU-145; test: NCI tumour cell line growth inhibition, 48 h
The source made the active and inactive calls. No stated cut-off is given here; in the data, active = GI50 up to about 1.1 µM and inactive = higher.
Recorded GI50 for the following compounds

Documented GI50 of C[C@@H]1OC(=O)C[C@H]2CC(=O)N(CCC3CN(S(=O)(=O)C(F)(F)F)c4ccc(Cc5ccc6c(c5)C(CCN5C[C@H]7[C@@H](CC(=O)O[C@H]7C)CC5=O)CN6S(=O)(=O)C(F)(F)F)cc43)C[C@@H]21 (stereo not given in full) : > 100 µM (inactive)

Documented GI50 of COC(=O)/C=C(\C)C(=O)N(C)c1ccccc1I : > 100 µM (inactive)

Documented GI50 of O=C(O)C1CC(O)CN1 (stereo not given) : > 100 µM (inactive)

Documented GI50 of CC(C)CNc1nc(N)nc(O)c1NC=O : > 100 µM (inactive)

Documented GI50 of CC(Cc1ccc(O)cn1)(NC(=O)c1ccccc1)C(=O)O (stereo not given) : > 100 µM (inactive)

Documented GI50 of CCOC(=O)C(=Cn1c(=S)[nH]c2ccc([N+](=O)[O-])cc21)C(=O)OCC : > 100 µM (inactive)

Documented GI50 of COC(=O)C1=C(OC(=O)/C(=C/c2ccccc2)c2ccccc2)C(C(=O)OC)[C@@]2(O)[C@@H](C(=O)OC)[C@H](C)C[C@@H]1[C@@H]2C(=O)OC (stereo not given in full) : > 100 µM (inactive)

###

test system: OVCAR-3; assay: NCI tumour cell line growth inhibition, 48 h
Active and inactive are the calls of the source. Rule as the data show it: active = GI50 up to about 1.1 µM and inactive = higher.
Recorded GI50 for the following molecules

Documented GI50 of O=C/C(=C1/C=Cc2cc([N+](=O)[O-])ccc2S1)c1ccccc1 : > 100 µM (inactive)

Attention now shifts to the item below.
Documented GI50 of O/N=C1\CSc2ccccc2C1 : > 100 µM (inactive)

###

test system: MOLT-4; test: NCI tumour cell line growth inhibition, 48 h
Active and inactive are the calls of the source. No stated cut-off is given here; in the data, active = GI50 up to about 1.1 µM and inactive = higher.
Can you answer with just one of these options? label 1 = active, label 0 = inactive

These solved cases illustrate the format of a correct answer.
Per the assay record, what outcome was assigned to CSc1ncnc2c1ncn2CCC#N ?
label 0

Per the assay record, what outcome was assigned to COC(=O)c1c(OC(C)=O)ccc2c1c1c(OC(C)=O)c3ccccc3c(OC(C)=O)c1n2C ?
label 0

***
Per the assay record, what outcome was assigned to CN(C)Cc1[nH]c2ccccc2c1C(=O)c1ccccc1 ?
label 0

Per the assay record, what outcome was assigned to C=CCC12CC(=O)C=C1CCC1(C2)OCCO1 (centres undefined) ?
label 0

Per the assay record, what outcome was assigned to O=C1CCC2c3ccccc3NCN12 (centres undefined) ?
label 0

Per the assay record, what outcome was assigned to C=C1C(=O)C([Si](C)(C)C)=C2C=C(C)C3(CC3)C12C (centres undefined) ?
label 0

Per the assay record, what outcome was assigned to O=c1c(Cc2ccc(Cl)cc2)nnc2sc(-c3ccc(-c4ccc(Cl)cc4Cl)o3)nn12 ?
label 0

Per the assay record, what outcome was assigned to COc1ccc(C2c3cc4c(cc3OC(NCCO)C2C)OCO4)cc1 (centres undefined) ?
label 0

###

Recorded GI50 for the following compounds
tested on: SK-OV-3; experiment: NCI tumour cell line growth inhibition, 48 h
Calls of active or inactive are those of the source. Cut-off read from the data, not from the text of the source: active = GI50 up to about 1.1 µM and inactive = higher.

Documented GI50 of O=C1C(C(c2ccccc2)N2CCOCC2)=C(O)C(c2ccccc2)N1c1ccccc1 (stereo unspecified) : > 10 µM (inactive)

***
Documented GI50 of C/C(=N\Nc1nc2ccccc2s1)c1ccncn1 : 1.74 µM (inactive)

Documented GI50 of CCSc1cc2c(cc1O)CC[C@@H]1[C@@H]2CC[C@]2(C)[C@@H](O)CC[C@@H]12 : 17.8 µM (inactive)

Documented GI50 of Cc1cccc2nc3cc(O)cc(O)c3c(O)c12 : > 10 µM (inactive)

Documented GI50 of OC1C2CCC1C1C3C=CC(C3)C21 (stereo unspecified) : > 100 µM (inactive)

Documented GI50 of O=C(O)C1CC(O)CN1 (stereo unspecified) : > 100 µM (inactive)

###

tested on: HL-60; assay: NCI tumour cell line growth inhibition, 48 h
Active and inactive are the calls of the source. Cut-off read from the data, not from the text of the source: active = GI50 up to about 1.1 µM and inactive = higher.
Can you answer with just one of these options? 1 (active), 0 (inactive)

These solved cases illustrate the format of a correct answer.
Per the assay record, what outcome was assigned to CC(C(=O)NCCNC(=O)CCCC(=O)N(C)O)C(=O)NCCNC(=O)CCCC(=O)N(C)O ?
0

Per the assay record, what outcome was assigned to NC(=O)Nc1c(Cl)cc(S(N)(=O)=O)cc1Cl ?
0

Per the assay record, what outcome was assigned to Cc1coc2c1C(=O)C(=O)c1c-2ccc2c1CCCC2(C)C ?
1

Per the assay record, what outcome was assigned to CC(=O)SCCC1c2[nH]c3ccccc3c2CCN1O (stereo not drawn) ?
0

Per the assay record, what outcome was assigned to O=C(NCCCl)NCc1ccccc1 ?
0

Per the assay record, what outcome was assigned to O=C(NNC(=O)c1ccccc1O)c1cccc(Br)c1 ?
0

***
Per the assay record, what outcome was assigned to O=c1c(Cc2ccc(Cl)cc2)nnc2sc(-c3ccc(-c4ccc(Cl)cc4Cl)o3)nn12 ?
0

Per the assay record, what outcome was assigned to COc1nc2c(c(=O)n1C)NC(C(O)C(O)CO)C=N2 (stereo not drawn) ?
0

Per the assay record, what outcome was assigned to Cc1ccc(C(=O)Nc2ccc(CP(=O)(O)O)cc2CP(=O)(O)O)cc1NC(=O)c1cccc(N)c1 ?
0

Per the assay record, what outcome was assigned to COc1cccc(C=C(C#N)C#N)c1OC ?
0

Per the assay record, what outcome was assigned to CC(=O)OCCOCNC(=S)N/N=C(\C)c1cccs1 ?
0

Per the assay record, what outcome was assigned to COC(=O)C1CCC(=O)N1C(c1ccc(OC)cc1)c1ccc(OC)cc1 (stereo not drawn) ?
0

Per the assay record, what outcome was assigned to COc1cc2c(=O)cnoc2cc1O ?
0

Per the assay record, what outcome was assigned to O=P1(N(CCCl)CCCl)NCCCO1 (stereo not drawn) [CYCLOPHOSPHAMIDE ANHYDROUS] ?
0

Per the assay record, what outcome was assigned to CCOc1ccc(/N=C/c2ccc3ccccc3n2)cc1 ?
0

Per the assay record, what outcome was assigned to CN(C)c1ccc(C2CC(=O)CC(c3ccc(N(C)C)cc3)C23C(=O)NC(=O)NC3=O)cc1 (stereo not drawn) ?
0

Recorded values, source ChEMBL document CHEMBL1201862.
